Each entry below lists one item and its recorded pKi value.
# tested on: JAK3 (Homo sapiens, UniProt P52333)
# Construct: made in house; host or cells: SF9 insect cells (baculovirus)
# Sequence (P52333 783-1124): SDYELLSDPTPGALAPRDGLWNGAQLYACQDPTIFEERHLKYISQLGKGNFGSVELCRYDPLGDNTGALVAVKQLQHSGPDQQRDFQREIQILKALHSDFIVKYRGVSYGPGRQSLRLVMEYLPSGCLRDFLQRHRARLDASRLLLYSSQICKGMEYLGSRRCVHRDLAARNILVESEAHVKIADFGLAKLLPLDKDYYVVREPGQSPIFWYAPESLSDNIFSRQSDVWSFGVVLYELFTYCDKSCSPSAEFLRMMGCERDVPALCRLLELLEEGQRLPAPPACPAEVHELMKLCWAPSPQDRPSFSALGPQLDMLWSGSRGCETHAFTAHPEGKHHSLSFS
# experimental details: JAK3 inhibition (Table 4)
# Format: biochemical
# measurement context: read-out: JAK3 Ki
pKi: −log10 of the molar value.
measurement kind: pKi

• N#CCCN1CCC(n2c(C(F)F)nc3cnc4[nH]ccc4c32)CC1 = 8.22
• CN(C)C(=O)CN1CCC[C@@H](n2cnc3cnc4[nH]ccc4c32)C1 = 6.20
• CN([C@H]1CC[C@H](n2cnc3cnc4[nH]ccc4c32)CC1)S(C)(=O)=O = 6.68
• CC1(n2nnc3cnc4[nH]ccc4c32)CCN(S(C)(=O)=O)CC1 = 6.44
• CCN1CCC(n2cnc3cnc4[nH]ccc4c32)C(F)(F)C1 (racemic) = 7.52
• CC(=O)N1CCC(c2nc3cnc4[nH]ccc4c3n2C2CCN(C(C)CC#N)CC2)C1 (racemic) = 6.94
• c1ncc(CN2CCC(n3cnc4cnc5[nH]ccc5c43)CC2)cn1 = 8.38
• CC(F)(F)CCc1nc2cnc3[nH]ccc3c2n1C1CCN(CCC#N)CC1 = 7.20
• O=C(Cc1nc2cnc3[nH]ccc3c2n1C1CCCOC1)N1CCC1 (racemic) = 6.31
